measurementNotes: soluble on expression in E. coli; label from the status in PepcDB or PDB records
attributeMeasured: soluble on expression in E. coli

[[record]]
sequencedata = "MGSDKIHHHHHHMKIRVDIIGLKGGVGKTTIALNTALYLSKRYKVLYIDKDLLSMGSLILGFNGLGFNKAIVEGLGNEQYEYKVNNNLTLFKLYSDPVNERELQHKVKGMGEKAERAYVDVVSKGYDVIIVDYGRIFRTNDPLVYDEYEMFKKNFPDYTIAAAGITDAIRNDVTDVVKYFLDTINRIKAKPLAFVINMVPQIGDIQKEINQIVREISEVVKCDILTIPFNEKLVQYANMGEVEEMQKVGKLIERILSNG"
readoutvalue = "not soluble"

[[record]]
sequencedata = "MADVLTELPGVGPSTADKLIEGGYLDFMKIATATIGELTDIEGISEKAAAKMIMAARDLCDLGFKSGVELLKQRQSVWRLSTGSTELDTVLAGGIESQSVTEFAGMFGSGKTQIMHQTCVNLQMREKIFADLEGVVEEELEAPKAVYIDTEGTFRPERVVQMAEGAGIDGQTVLDNTFVARAYNSDMQMLFAEKIEDLIKGGNNIKLVIIDSLTSTFRNEFTGRGKLAERQQKLGRHMATLNKLADLYNCIVLVTNQVAAKPDAYFGVAEQAIGGHVVGHAATFRFFLRKSKGDKRVAKLYDSPHLPDSEAVFRITEKGIQD"
readoutvalue = "soluble"

[[record]]
sequencedata = "MGSDKIHHHHHHMDMNQGGLISLSPHAQVLLRPEGIQFGLDSANAGIFAAPESLIVAIVQVLRGFWQPIAKTTAIEQLTEAGLQPVAARGLIDDLLHHRVLSIVERNLTVAVGGFGPLVAPIKAVLGCAGISVVQAHTIQRCMTLESLLSREVPLIWINSTPSFSHIAQELVEVKTMIPVGLMDNHAIIGPVRIDGRGPCGLCTDLYRSDADPQWPALLKNATAPLTAPAALTYATAARVTRLVEQLSEPRQRVTVTAGLVIRVSSDGELSSEIMSPHSRCPLCWSSRWDCDPLTGTEQAFLADLGQNVLL"
readoutvalue = "not soluble"

[[record]]
sequencedata = "GPGSMERLLPSMQQRFAELAHTGVGESSLTVEALFQRYQRVLKVGEGTFGEVFVLYDTVAHTYITMKRMHTLLSLRRRSLGIHRCTFREVELLAALQHPNIVQVLDYHILSDGSLVMLMPVIAHDLTSLLRRWPSTPQSSDHGTASTAASTRPRMPLHVVKCIFRQIIAGVAYLHKHKVVHRDLKPSNVMVDHTGVVKLIDFGWSRFCAAAGAMTGPPCVTAFRPPEVLMGAHNHYTFSLDIWCCGCILFEMLTGGTPFAKSRNEAECLANIVDWLGSPPSSSEVYYRRAARCPFPLAPGRPDTFAQRCSNYGIKSAEAMFLRRMLCLEPGERATAEALLRDPWFTTAPTMCVPRAVPLPAHNMFRLVEVKRKELEH"
readoutvalue = "not soluble"


Now consider the entry below.
**Q:** Which soluble on expression in E. coli reading was recorded for the sequence `MASIADAIGKILTAHSPYPAVVVDRHWNMVDANDAVAVLTEGCAAELLEPPVNVLRLSLHPDGMAPRILDLAQWRGHLLHRLRHQIAVTGDDGLRDLLRELEGYPGGTVGSAELPGSLVVPLRIRHHETVLAFLSTTTMFGTPLDVTVAELAIESFFPADAVTAATLRSSVSSD` ?
**A:** soluble
